Record form. Attribute: IF frac. Fill in for each entry.
Test system: TM287/288
Assay: DEER two-Gaussian fit of IF/OF populations, wildtype TM287/288
Set-up: species or system Thermotoga maritima
Conditions: spin-labeled pair 131^TM288-248^TM288 WT, estimated errors 10%
The response must be a number in % with no trailing unit.

Q) For the compound Nc1ncnc2c1ncn2[C@@H]1O[C@H](COP(=O)(O)OP(=O)(O)OP(=O)(O)O)[C@@H](O)[C@H]1O , what IF frac is on record?
A) 56.8

Q) Recorded IF frac of Nc1ncnc2c1ncn2[C@@H]1O[C@H](COP(=O)(O)OP(=O)(O)NP(=O)(O)O)[C@@H](O)[C@H]1O , please.
A) 100

Q) Which IF frac is listed for Nc1ncnc2c1ncn2[C@@H]1O[C@H](COP(=O)(O)OP(=O)(O)O)[C@@H](O)[C@H]1O ?
A) 100
